protocol-description: Pharmacokinetic study of Example 3 in mouse (IV, IP)
Type: in vivo, C57 Mouse
measurement-conditions: C57, mouse, plasma, iv, 5 mg/kg, 5 mg/kg IV; mean; read-out: HL_Lambda_z (T1/2, h) (converted)
measure-name: half-life (h)
Give bare numbers, in h.

# input half-life lookup needed for Cc1ccc(Nc2nc(N/N=C/c3c[nH]c4ccccc34)cc(N3CCOCC3)n2)cc1 [Example 3] , thanks.
# output 0.89

----------
protocol-description: Pharmacokinetic study of Example 1 in mouse (IV, IP, PO)
Format: in vivo, Male C57BL/6 Mouse
measurement-conditions: male, C57BL/6, mouse, plasma, iv, 5 mg/kg, IV 5 mg/kg; 4.00 h; individual mice M1-M3
measure-name: concentration at 4 h (ng/mL)
Answers are plain numbers, in ng/mL.

# input concentration at 4 h lookup needed for Cc1ccc(Nc2nc(N/N=C/c3c[nH]c4ccccc34)nc(N3CCOCC3)n2)cc1 , thanks.
# output 17.4
